# Measured Target: hNaV1.7 (Homo sapiens, UniProt Q15858)
# Construct: expressed in transfected cells; host or cells: HEK293
# Sequence (Q15858 whole entry): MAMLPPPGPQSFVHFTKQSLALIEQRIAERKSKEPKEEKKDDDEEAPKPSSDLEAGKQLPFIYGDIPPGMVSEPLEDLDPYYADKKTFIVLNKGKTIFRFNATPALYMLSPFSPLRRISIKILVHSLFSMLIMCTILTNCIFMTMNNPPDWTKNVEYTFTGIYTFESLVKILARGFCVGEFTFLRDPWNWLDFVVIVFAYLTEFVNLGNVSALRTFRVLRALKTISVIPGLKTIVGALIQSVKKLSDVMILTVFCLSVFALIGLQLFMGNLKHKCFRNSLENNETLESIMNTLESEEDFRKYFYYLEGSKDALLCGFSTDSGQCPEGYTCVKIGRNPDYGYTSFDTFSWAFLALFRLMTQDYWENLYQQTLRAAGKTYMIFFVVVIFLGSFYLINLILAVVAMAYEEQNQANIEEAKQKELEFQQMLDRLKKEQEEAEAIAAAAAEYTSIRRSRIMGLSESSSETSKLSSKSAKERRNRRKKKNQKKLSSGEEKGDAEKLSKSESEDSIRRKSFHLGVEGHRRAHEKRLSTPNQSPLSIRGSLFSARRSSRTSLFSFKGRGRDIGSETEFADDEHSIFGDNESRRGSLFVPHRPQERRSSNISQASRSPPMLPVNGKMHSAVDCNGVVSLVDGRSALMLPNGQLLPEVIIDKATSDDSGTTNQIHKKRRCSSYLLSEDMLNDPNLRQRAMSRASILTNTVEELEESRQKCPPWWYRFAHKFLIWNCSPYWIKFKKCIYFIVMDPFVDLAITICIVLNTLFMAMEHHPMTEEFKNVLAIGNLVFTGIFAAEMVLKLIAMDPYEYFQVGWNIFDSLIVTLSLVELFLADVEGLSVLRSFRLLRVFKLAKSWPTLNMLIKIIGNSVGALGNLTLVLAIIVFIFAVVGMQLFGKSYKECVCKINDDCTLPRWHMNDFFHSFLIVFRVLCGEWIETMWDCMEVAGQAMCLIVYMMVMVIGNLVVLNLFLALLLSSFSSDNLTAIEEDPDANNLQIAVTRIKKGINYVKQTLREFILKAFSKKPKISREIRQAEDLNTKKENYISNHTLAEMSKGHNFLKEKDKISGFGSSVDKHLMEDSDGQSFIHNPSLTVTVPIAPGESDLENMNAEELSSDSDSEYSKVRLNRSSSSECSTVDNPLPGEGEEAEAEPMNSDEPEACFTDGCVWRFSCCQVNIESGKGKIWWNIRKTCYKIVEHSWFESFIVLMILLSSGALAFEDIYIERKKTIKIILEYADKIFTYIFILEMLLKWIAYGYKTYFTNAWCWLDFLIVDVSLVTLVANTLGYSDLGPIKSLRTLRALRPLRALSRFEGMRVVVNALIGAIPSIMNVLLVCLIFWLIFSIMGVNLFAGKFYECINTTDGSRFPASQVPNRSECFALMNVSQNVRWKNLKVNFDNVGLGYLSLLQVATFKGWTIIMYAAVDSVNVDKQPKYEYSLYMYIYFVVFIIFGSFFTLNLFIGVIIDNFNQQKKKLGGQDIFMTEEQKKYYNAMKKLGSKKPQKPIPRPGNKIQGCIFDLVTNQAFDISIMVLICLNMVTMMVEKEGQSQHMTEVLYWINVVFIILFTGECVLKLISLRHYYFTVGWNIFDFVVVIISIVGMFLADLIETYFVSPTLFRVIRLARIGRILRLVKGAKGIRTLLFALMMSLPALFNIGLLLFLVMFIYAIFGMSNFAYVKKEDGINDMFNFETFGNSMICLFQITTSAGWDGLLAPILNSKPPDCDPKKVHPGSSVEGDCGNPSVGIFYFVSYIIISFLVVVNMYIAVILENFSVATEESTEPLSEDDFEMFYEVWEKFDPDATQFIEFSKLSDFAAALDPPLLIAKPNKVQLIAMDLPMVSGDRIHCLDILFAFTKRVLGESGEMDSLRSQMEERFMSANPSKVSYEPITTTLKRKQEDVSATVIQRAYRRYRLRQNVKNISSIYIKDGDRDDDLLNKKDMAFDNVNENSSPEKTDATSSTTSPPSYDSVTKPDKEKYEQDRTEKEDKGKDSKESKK
# Experiment Description: QPatch NaV1.7 assay (whole-cell patch clamp, QPatch16x)
# Format: cell-based
# Condition Notes: holding voltage −90 mV (most channels closed), HEK293-hNaV1.7 cells, read-out: QP Nav1.7 −90 mV pIC50 (converted)
Structures can show the parent of a compound that is named as a salt.
For each entry below, report its IC50 value.
Give bare numbers, in µM.

Worked examples, 4 molecules total:
CC(Oc1ccc(F)c(-c2ccnc([C@H]3CC[C@@]4(CCN(C)C4=O)N3)c2)c1)C1CC1 (some centres unmarked) [Example 255, hydrochloride]	100
CN1CC[C@]2(CC[C@@H](c3cc(-c4ccc(C(F)(F)F)cc4)c(OC(C)(C)C)cn3)N2)C1=O [Example 64, hydrochloride]	50.1
CCOc1ccc(F)c(-c2ccnc([C@H]3CC[C@]4(CC[C@H](C)NC4=O)N3)c2)c1 [Example 243, hydrochloride]	15.8
Cc1ccn(-c2ccc(F)c(-c3ccnc([C@H]4CC[C@@]5(CCN(C)C5=O)N4)c3)c2)n1 [Example 182, hydrochloride]	100

Batch request: IC50 per item, same order as input.
1. O=C1NCC[C@]12CC[C@@H](c1cc(-c3ccc(C(F)(F)F)cc3)ccn1)N2 [Example 114, hydrochloride]
2. CCOc1ccc(F)c(-c2cc(OC)nc([C@H]3CC[C@@]4(CCN(C)C4=O)N3)c2)c1 [Example 250, hydrochloride]
3. Cc1cnn(-c2ccc(F)c(-c3ccnc([C@H]4CC[C@@]5(CCN(C)C5=O)N4)c3)c2)c1 [Example 183, hydrochloride]
4. CN1CC[C@@]2(CC[C@H](c3cc(-c4cc(OC5CC5)ccc4F)ccn3)N2)C1=O [Example 185, hydrochloride]
5. CCOc1cc(-c2ccnc([C@H]3CC[C@@]4(CCN(C)C4=O)N3)c2)c(F)cc1C [Example 151, hydrochloride]
6. CN1CC[C@]2(CC[C@H](c3cc(-c4ccccc4F)ccn3)N2)C1=O [Example 35, hydrochloride]

1: 79.4; 2: 20; 3: 63.1; 4: 63.1; 5: 100; 6: 398

Quick batch: IC50 for everything below.
1. Cc1cc(-c2cc(OC(F)(F)F)ccc2F)cc([C@H]2CC[C@@]3(CCN(C)C3=O)N2)n1 [Example 200, hydrochloride]
2. COc1cc(C(F)(F)F)ccc1-c1cc(C)nc([C@@H]2CC[C@]3(CCN(C)C3=O)N2)c1 [Example 91, hydrochloride]
3. CCOc1ccc(F)c(-c2cc(C(C)C)nc([C@H]3CC[C@@]4(CCN(C)C4=O)N3)c2)c1 [Example 237, hydrochloride]
4. Cc1c(-c2ccc(C(F)(F)F)cc2)ccnc1[C@H]1CC[C@@]2(CCN(C)C2=O)N1 [Example 17, hydrochloride]

[31.6, 39.8, 2.51, 20]
